Listed next: entries and their corresponding cytotoxicity at 70.5 h.
Assay: Human HepG2 cell viability assay in 384 well format
Format: toxicity, cell-based
Set-up: dose 125 nL, time 70.5 hour; concentration not given beside the values
Conditions: HepG2 cells, read-out: Inhibition
assay.metric: cytotoxicity at 70.5 h (%)

1. CCc1ncnc2c1CCN(S(=O)(=O)c1ccccc1)CC2; 3.38
2. COC(=O)CNC(=O)c1cccc(C(=O)N(C)c2ccccc2)c1; 30.5
3. Cc1c(C(=O)N2CCCSCC2)nnn1-c1ccccc1Cl; -8.81
4. Cc1noc([C@H]2COC[C@H]3CN(C(=O)Cc4ccccc4F)C[C@H]32)n1; -17
5. CCNC(=O)[C@@H]1C[C@@H](NC(=O)Cc2ccncc2)CN1Cc1ccsc1; -1.57
6. COCCN1CCC(CN(CC2CCCO2)C(=O)CCC(F)(F)F)CC1 (stereo unspecified); -2.11

* * *

Each entry below carries its reported cytotoxicity at 70.5 h.
Assay: Human HepG2 cell viability assay in 384 well format
Format: toxicity, cell-based
Set-up: dose 125 nL, time 70.5 hour; concentration not given beside the values
Settings: HepG2 cells, read-out: Inhibition
assay.metric: cytotoxicity at 70.5 h

1. CC(C)NC(=O)c1ccc(NC(=O)NC(C)c2ccccn2)cc1 (stereo unspecified); 19.1%
2. Cc1ccc2nc(CN3CCCCC3CCN3CCOCC3)cn2c1 (stereo unspecified); -10.8%
3. COc1cccc(CC2CN(C3CCC3)CCO2)c1 (stereo unspecified); 0.0358%
4. Cc1nc2c(c(N3CC=CC3)n1)CCN(c1ncccc1C(N)=O)CC2; -2.97%
5. CCc1[nH]nc(NC(=O)c2cc[nH]n2)c1C; 6.09%
6. Cc1nc(CNCC2CNc3ccnn3C2)cs1 (stereo unspecified); -7.55%

* * *

Test: Human HepG2 cell viability assay in 384 well format
Type: toxicity, cell-based
Design: dose 125 nL, time 70.5 hour; concentration not given beside the values
Conditions: HepG2 cells, read-out: Inhibition
Below: a set of entries, each annotated with reported cytotoxicity at 70.5 h.
assay.metric: cytotoxicity at 70.5 h (%)

1) COc1ccc(F)c(-c2cc(C(=O)NC3CC3)ccn2)c1; -14.2
2) CCc1nc(CN2CCCC(NCc3ccc(C(N)=O)cc3)C2)no1 (centres undefined); -10.1
3) CCc1ccccc1OCCN1CC[C@@]2(O)CCNC[C@H]2C1; -3.34
4) CC(O)CN(C)S(=O)(=O)c1ccc(C#N)cc1F (centres undefined); -2.23
5) CCn1nccc1CNC(=O)Cn1cc2c(n1)c(C)nn2C(C)C; -9.07
6) CC(C)n1c2ccccc2c2c1cc(C(=O)NCCO)n2C(=O)N(C)C; -4.08
7) OC(CN(Cc1ccccc1)Cc1ccon1)c1ccco1 (centres undefined); -7.07
8) CN1C(=O)Cc2cc(-c3csc(CCN4CCOC4=O)n3)ccc21; 6.81
9) NC(=O)[C@@H]1CCCN1C(=O)c1csc(-c2ccc(C(F)(F)F)cc2)n1; 20.6
10) COc1ccc(CNc2cccnc2-n2cccn2)cc1OC; -14.2
11) COc1ccc(S(=O)(=O)Cc2noc(CC(C)C)n2)cc1; 5.74
12) Cc1cc(C)n(CC2CCCN2CC(=O)N(C)CCC#N)n1 (centres undefined); -8.11
13) COc1cccc(CC(=O)N2CC[C@@H](OC)[C@@H]2Cc2cccnc2)c1; -4.93
14) COc1ccc(C(=O)N(C)Cc2nnc3ccccn23)c(OC)c1OC; -11.4
15) CC(C)OCCCNC(=O)CN1CCN(c2nccs2)C(C)C1 (centres undefined); 35.5
16) CCCNC(=O)CNC(=O)c1scnc1C; 3.25
17) Cn1cc(I)c(C(=O)NC2CCCC2)n1; 10.4
18) O=C(O)c1ccc(CN2CCC(c3ccnc4ccnn34)CC2)cc1; -12
19) CN(C)Cc1cccc(-c2cccnc2C(=O)NCC2CC2)c1; -2.77
20) CCc1nnc(N2C[C@@H](CN(C)CCO)[C@@H](CO)C2)s1; -12.4
21) CCc1nnc(CN2CCC(N3CCN(CC)C3=O)CC2)o1; -16.5
22) COc1ccc(N2CCN(C(=O)[C@@H]3C[C@@H](O)CN3)CC2(C)C)cc1; 6.62
23) Cn1cc2ncn(CCC3CCN(Cc4ccccc4)C3)c(=O)c2n1 (centres undefined); -7
24) Cc1[nH]c2c(F)cccc2c1CC(=O)NCCCNc1cccnc1; -11.8
